- Target of assay: G1 APOL1 (Homo sapiens, UniProt O14791, I384M/S342G)
- Construct: expressed in transfected cells
- Measurement protocol: Acute APOL1 Thallium Assay with Inducible Stable Clones of HEK 293 Cells
- Assay type: cell-based
- Experimental setup: HEK 293 inducible stable clones, G1 APOL1; read-out: Thallium Assay (IC50)
Outcome measure: IC50

> print(dat)
                                   compound                           target.of.assay  observed.value
1  C[C@H](O)CC(=O)NCCc1c(-c2ccc(F)cc2)[nH]c2c(F)cc(F)cc12  G1 APOL1 (Homo sapiens, UniProt O14791, I384M/S342G)       > 1000 nM

## Input Look up and state reported IC50 for O=C(CCc1c(-c2ccc(F)cc2)[nH]c2c(F)cc(F)cc12)NC1CCC1(F)F (stereo not shown)
## Output 250 to 1000 nM

## Input Specify IC50 for NC(=O)CCCc1c(-c2ccc(F)cc2)[nH]c2c(F)cc(F)cc12 and stop.
## Output > 1000 nM

## Input Note IC50 for the compound shown: O=C(CCc1c(-c2ccc(F)cc2)[nH]c2c(F)cc(F)cc12)NC1(CO)CC(F)(F)C1
## Output 250 to 1000 nM

* * *

- Target of assay: G1 APOL1 (Homo sapiens, UniProt O14791, I384M/S342G)
- Construct: expressed in transfected cells
- Measurement protocol: Acute APOL1 Thallium Assay with Inducible Stable Clones of HEK 293 Cells
- Format: cell-based
- Experimental setup: HEK 293 inducible stable clones, G1 APOL1; read-out: Thallium Assay (IC50)
pIC50: −log10 of the molar value.
Reported values of pIC50 for individual entries

## Input Specify measured pIC50 for O=C(NCCc1c(-c2ccc(F)cc2)[nH]c2c(F)cc(F)cc12)NCC1(O)CCCC1 [Compound 266] .
## Output < 6.00

## Input Return pIC50 for the following compound: O=C(NCCc1c(-c2ccc(F)cc2)[nH]c2c(F)cc(F)cc12)N[C@@H]1CC[C@@H](O)C1 [Compound 273]
## Output < 6.00

## Input Kindly indicate its recorded pIC50. Item: C[C@H](CO)NC(=O)CCc1c(-c2ccc(F)cc2)[nH]c2c(F)cc(F)cc12 [Compound 120]
## Output > 6.60

## Input Specify pIC50 for OC1(CC#Cc2c(-c3ccc(F)cc3)[nH]c3c(F)cc(F)cc23)COC1 [Compound 524] and stop.
## Output < 6.00

## Input Read the entry O=C(Cc1c(-c2ccc(F)cc2)[nH]c2ccccc12)NCC(O)CO (centres unmarked) [Compound 516] and write its reported pIC50.
## Output < 6.00

* * *

- Target of assay: APOL1 G1 Protein (Homo sapiens, UniProt O14791, I384M/S342G)
- Sequence (O14791 28-398 S342G/I384M): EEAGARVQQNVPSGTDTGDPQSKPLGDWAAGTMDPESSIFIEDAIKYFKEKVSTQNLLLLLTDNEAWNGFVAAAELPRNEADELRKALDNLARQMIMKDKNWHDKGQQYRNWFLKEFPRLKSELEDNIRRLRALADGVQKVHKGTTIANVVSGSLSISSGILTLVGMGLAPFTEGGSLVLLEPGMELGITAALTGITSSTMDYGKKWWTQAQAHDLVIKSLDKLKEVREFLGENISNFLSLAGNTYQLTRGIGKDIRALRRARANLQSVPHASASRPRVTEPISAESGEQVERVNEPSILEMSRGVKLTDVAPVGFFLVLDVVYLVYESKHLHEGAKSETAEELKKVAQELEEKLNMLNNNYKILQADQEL
- Measurement protocol: Trypanosoma brucei brucei Lysis Assay Using APOL1 Recombinant Protein (AlamarBlue viability)
- Experimental setup: read-out: Trypanosomal Assay (IC50)
pIC50: −log10 of the molar value.
Outcome measure: pIC50

Worked examples follow.
> print(dat)
                                   compound                           target.of.assay  observed.value
1  O=C(CCc1c(-c2ccc(F)cc2)[nH]c2c(F)cc(F)cc12)Nc1cnoc1  APOL1 G1 Protein (Homo sapiens, UniProt O14791, I384M/S342G)          < 6.00
2  O=C(CCc1c(-c2ccc(F)cc2)[nH]c2c(F)cc(F)cc12)Nc1c[nH][nH]c1=O  APOL1 G1 Protein (Homo sapiens, UniProt O14791, I384M/S342G)          < 6.00
3  CC(C)(C)OC(=O)NC1CCCN(C(=O)CCc2c(-c3ccc(F)cc3)[nH]c3ccc(F)cc23)C1 (stereo not shown)  APOL1 G1 Protein (Homo sapiens, UniProt O14791, I384M/S342G)          < 6.00
4  C[C@H](O)[C@H](CO)NC(=O)CCc1c(-c2ccc(F)cc2)[nH]c2ccc(F)cc12  APOL1 G1 Protein (Homo sapiens, UniProt O14791, I384M/S342G)          < 6.00
5  O=C(CCc1c(-c2ccc(F)cc2)[nH]c2c(F)cc(F)cc12)NCc1ccc(Cl)s1  APOL1 G1 Protein (Homo sapiens, UniProt O14791, I384M/S342G)          < 6.00

## Input For the compound CC(NC(=O)CCc1c(-c2ccc(F)cc2)[nH]c2ccc(F)cc12)C(N)=O (racemic) , give its reported pIC50.
## Output < 6.00

## Input Complete the entry with pIC50 for NC1CCCN(C(=O)CCc2c(-c3ccc(F)cc3)[nH]c3ccc(F)cc23)C1 (stereo not shown)
## Output < 6.00
